B1: FBF1 (parent)
chain: LQRASILDMRRDHEEQLQRLKLLK

variants of: B1; experiment: protein stability index of a GFP-peptide fusion (GPS, HEK-293T) (PSI 1-6); higher = more stable; conditions: c terminus: a fixed tail appended;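 note: lentivirally expressed fusions sorted by FACS into six bins by GFP to DsRed ratio, PSI derived from sequencing read proportions per bin multiplied by bin number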
We use 3 as the dividing line for protein stability index: on or above the line is yes, below is no.

- VAR: "Q2N"
  DISCRETE_LABEL: "yes"
- VAR: "M9L"
  DISCRETE_LABEL: "yes"
- VAR: "H13T"
  DISCRETE_LABEL: "yes"
- VAR: "R3I"
  DISCRETE_LABEL: "no"
- VAR: "D8R"
  DISCRETE_LABEL: "no"
- VAR: "L1A"
  DISCRETE_LABEL: "yes"
- VAR: "Q2A"
  DISCRETE_LABEL: "yes"
- VAR: "K24D"
  DISCRETE_LABEL: "yes"
- VAR: "K21D"
  DISCRETE_LABEL: "yes"
- VAR: "R19P"
  DISCRETE_LABEL: "yes"
- VAR: "L22F"
  DISCRETE_LABEL: "yes"
- VAR: "E15C"
  DISCRETE_LABEL: "no"
- VAR: "D8T"
  DISCRETE_LABEL: "yes"
- VAR: "S5G"
  DISCRETE_LABEL: "yes"
- VAR: "L17M"
  DISCRETE_LABEL: "yes"
- VAR: "A4R"
  DISCRETE_LABEL: "yes"
- VAR: "Q18F"
  DISCRETE_LABEL: "no"
- VAR: "L22S"
  DISCRETE_LABEL: "yes"
- VAR: "R3G"
  DISCRETE_LABEL: "yes"
- VAR: "Q18R"
  DISCRETE_LABEL: "yes"
- VAR: "D8K"
  DISCRETE_LABEL: "no"
- VAR: "L17A"
  DISCRETE_LABEL: "yes"
- VAR: "R19G"
  DISCRETE_LABEL: "yes"
- VAR: "L1Y"
  DISCRETE_LABEL: "no"
- VAR: "I6R"
  DISCRETE_LABEL: "yes"
- VAR: "H13K"
  DISCRETE_LABEL: "no"
- VAR: "H13I"
  DISCRETE_LABEL: "no"
- VAR: "L20R"
  DISCRETE_LABEL: "yes"
- VAR: "L1C"
  DISCRETE_LABEL: "yes"
- VAR: "Q2C"
  DISCRETE_LABEL: "no"
- VAR: "L20H"
  DISCRETE_LABEL: "yes"
